Provenance of the data: PubChem BioAssay AID1996

# conditionParameters: buffer; pH 7.4; 200.0 µM
resultType: solubility kinetic

# count of solved cases: 2
> print(dat)
                                   compound       reading
1    O=C(O)Cc1sc(NC2CCCCC2)nc1-c1ccc(Cl)cc1  > 52.6 µg/mL
2  CSc1ccccc1C(=O)C1CCCN(S(=O)(=O)N(C)C)C1 (stereo not drawn)  > 51.4 µg/mL

Could you now consider this next compound?
Prompt: Query (compound): N#Cc1c(-c2cccc(Cl)c2)[nH]c(=S)[nH]c1=O ; field requested: solubility kinetic
Completion: > 39.6 µg/mL

----------
# conditionParameters: buffer; pH 7.4; 200.0 µM
resultType: solubility kinetic (µg/mL)
Give just the numeric value; µg/mL need not be written.

> print(dat)
                               inputsmiles  reading
1  CC(=O)c1c(C)[n+]([O-])c2ccc3c(non3O)c12     25.5

Could you now consider this next molecule?
Prompt: Query (molecule): COc1ccc(Nc2cc(Nc3cccc(OC)c3)ncn2)cc1 ; field requested: solubility kinetic
Completion: 0.5

----------
# conditionParameters: buffer; pH 7.4; 200.0 µM
Reported values of solubility kinetic for individual entries

# count of solved cases: 3
> print(dat)
                                   compound          resulttype       reading
1  N#Cc1cccc(C#N)c1NCC1CCCO1 (centres undefined)  solubility kinetic  > 34.1 µg/mL
2    Cc1ccc(C(=O)OCC(=O)N(C)c2ccccc2)c(C)c1  solubility kinetic  > 44.6 µg/mL
3          COCCCN(CC(=O)O)S(=O)(=O)c1ccccc1  solubility kinetic  > 43.1 µg/mL

Could you now consider this next compound?
Prompt: Query (compound): O=C(O)c1ccccc1-c1ccccc1C(=O)Nc1ccccc1-c1ccccc1 ; field requested: solubility kinetic
Completion: > 59 µg/mL

----------
Reported values of solubility kinetic for individual entries
# conditionParameters: buffer; pH 7.4; 200.0 µM

# count of solved cases: 5
> print(dat)
                                   compound          resulttype       reading
1  O=C1c2ccccc2NC(c2ccccc2)N1CCCN1CCOCC1 (stereo unspecified)  solubility kinetic  > 52.7 µg/mL
2  CC(C)(C)C(=O)C1=C(O)C(=O)N(Cc2ccccc2)C1c1ccccc1Cl (stereo unspecified)  solubility kinetic  > 57.6 µg/mL
3          Cc1ccc(-n2nc(C)cc2NC(=O)CC#N)cc1  solubility kinetic  > 38.1 µg/mL
4  CN1C(C(=O)Nc2ccccn2)=C(O)c2ccccc2S1(=O)=O  solubility kinetic  > 49.7 µg/mL
5            CCc1cc(=O)[nH]c(SCCc2ccccc2)n1  solubility kinetic  > 39.1 µg/mL

Could you now consider this next compound?
Prompt: Query (compound): O=[N+]([O-])c1ccc(Oc2ccc(OCc3ccccc3)cc2)nc1 ; field requested: solubility kinetic
Completion: < 0.3 µg/mL

----------
# conditionParameters: buffer; pH 7.4; 200.0 µM
resultType: solubility kinetic

# count of solved cases: 8
> print(dat)
                                   compound          resulttype       reading
1    CC(C)=C(NC(=O)c1ccccc1)C(=O)NCc1ccccc1  solubility kinetic  > 46.3 µg/mL
2  O=S(=O)(c1ccccc1)N1CCCC1c1cccs1 (configuration not stated)  solubility kinetic    > 44 µg/mL
3  COc1cc(C)ccc1OCC(=O)NCC1CCCO1 (configuration not stated)  solubility kinetic  > 41.9 µg/mL
4       CSc1nsc(SCC(=O)Nc2ccc(C(=O)O)cc2)n1  solubility kinetic  > 51.2 µg/mL
5     CCc1cc(=O)[nH]c(SCC(=O)Nc2cc(C)on2)n1  solubility kinetic  > 44.1 µg/mL
6  O=C(COC(=O)Cc1ccc(Br)cc1)NCC1CCCO1 (configuration not stated)  solubility kinetic  > 53.4 µg/mL
7        O=C(Nc1ccc(Br)cc1)c1cccnc1N1CCOCC1  solubility kinetic  > 54.3 µg/mL
8  CN(Cc1c(O)ccc2c1oc(=O)c1ccccc12)C1CCCCC1  solubility kinetic  > 50.6 µg/mL

Prompt: Query (compound): Cc1ccccc1C(=O)N1c2ccccc2OCC1C(C)(C)C (configuration not stated) ; field requested: solubility kinetic
Completion: < 0.7 µg/mL

Prompt: Query (compound): CCC1SC(=Nc2cccc(C)c2)NC1=O (configuration not stated) ; field requested: solubility kinetic
Completion: > 35.1 µg/mL

Prompt: Query (compound): Cc1ccc(SC(C)C(=O)NC2CC2)cc1 (configuration not stated) ; field requested: solubility kinetic
Completion: > 35.3 µg/mL

----------
Reported values of solubility kinetic for individual entries
# conditionParameters: buffer; pH 7.4; 200.0 µM

> print(dat)
                                   compound       reading
1  Cc1noc(C)c1C(=O)OCC(=O)NCCc1ccc(S(N)(=O)=O)cc1  > 57.2 µg/mL
2  Cc1ccc(Cl)cc1NC(=O)C1C2CCC(O2)C1C(=O)O (stereo not given)  > 46.5 µg/mL
3         C=CCn1c(SCC#N)nnc1-c1ccc2ncccc2c1  > 46.1 µg/mL
4            CCOC(=O)c1c(C)noc1-c1ccc(Br)o1   < 0.6 µg/mL

Could you now consider this next compound?
Prompt: Query (compound): COc1ccccc1NC(=O)NC1(C)CCS(=O)(=O)C1 (stereo not given) ; field requested: solubility kinetic
Completion: > 44.8 µg/mL

----------
Reported values of solubility kinetic for individual entries
# conditionParameters: buffer; pH 7.4; 200.0 µM

# count of solved cases: 2
> print(dat)
                               compound          resulttype       reading
1  O=C1CCc2cc(S(=O)(=O)Nc3ccccc3)ccc2N1  solubility kinetic  > 45.4 µg/mL
2    O=C(CSc1nnc(-c2ccccn2)o1)Nc1ccccc1  solubility kinetic  > 46.9 µg/mL

Could you now consider this next compound?
Prompt: Query (compound): COCC(C)n1c(C)cc(C(=O)COC(=O)c2cccn2C)c1C (stereo not drawn) ; field requested: solubility kinetic
Completion: > 49.9 µg/mL

----------
# conditionParameters: buffer; pH 7.4; 200.0 µM
resultType: solubility kinetic

Prompt: Query (molecule): CC(=O)/C(C#N)=C1\NC(=O)C(Cc2ccc(F)cc2)S1 (stereo not given) ; field requested: solubility kinetic
Completion: > 43.5 µg/mL

Prompt: Query (molecule): COc1cccc(C=O)c1OC(=O)N1CCOCC1 ; field requested: solubility kinetic
Completion: > 39.8 µg/mL

Prompt: Query (molecule): COc1ccc(CC(=O)Nc2ccc(OC(C)=O)cc2C(=O)O)cc1 ; field requested: solubility kinetic
Completion: > 51.5 µg/mL

Prompt: Query (molecule): NC(=O)c1ccc(NC(=O)COC(=O)C2COc3ccccc3O2)cc1 (stereo not given) ; field requested: solubility kinetic
Completion: > 53.5 µg/mL

Prompt: Query (molecule): Cc1noc(C)c1S(=O)(=O)Nc1cccc(CO)c1 ; field requested: solubility kinetic
Completion: > 42.3 µg/mL

Prompt: Query (molecule): CC(C)(C)C(=O)CN1C(=O)NC2(CCc3ccccc32)C1=O (stereo not given) ; field requested: solubility kinetic
Completion: > 45.1 µg/mL

Prompt: Query (molecule): Cc1cc(C)cc(NC(=S)N(CCN(C)C)Cc2cccs2)c1 ; field requested: solubility kinetic
Completion: 43.7 µg/mL

Prompt: Query (molecule): Oc1c(Cl)cc(Cl)cc1CNc1ccccn1 ; field requested: solubility kinetic
Completion: 3.1 µg/mL

Prompt: Query (molecule): CC/C(O)=C1\C(=O)CC(C)(C)CC1=NCCc1nc2ccccc2[nH]1 ; field requested: solubility kinetic
Completion: > 50.9 µg/mL

----------
# conditionParameters: buffer; pH 7.4; 200.0 µM
resultType: solubility kinetic

> print(dat)
                                    molecule       reading
 1        COc1cc(SC)ccc1C(=O)Nc1nc(C)cc(C)n1    40.7 µg/mL
 2              COc1cccc(C(=O)Nc2ccncc2)c1OC  > 38.7 µg/mL
 3                     N#Cc1ccc(N2CCOCC2)nc1  > 28.4 µg/mL
 4                Cn1cc(-c2cc(C(=O)O)on2)cn1    > 29 µg/mL
 5  CCCCN(C(=O)c1ccco1)C1CCS(=O)(=O)C1 (centres undefined)  > 42.8 µg/mL
 6         CCC(=O)Nc1ccc2c(c1)ncn2-c1ccccc1C  > 41.9 µg/mL
 7       Cc1cc(C(=O)NCc2csc(-c3ccccc3)n2)no1  > 44.9 µg/mL
 8         Cn1c(-c2ccc(Cl)nc2)nc2cc(Cl)ccc21     6.6 µg/mL
 9            CC(C)C/C(=N/O)c1cn(C)c2ccccc12    21.5 µg/mL
10  O=C(Cn1cc(C(F)(F)F)ccc1=O)OCC(=O)c1ccc[nH]1  > 49.2 µg/mL

Prompt: Query (molecule): Cc1nnc(SCc2cc(=O)[nH]c(=S)[nH]2)s1 ; field requested: solubility kinetic
Completion: > 40.9 µg/mL

Prompt: Query (molecule): Cc1cc2c(cc1C)C(c1ccsc1)CC(=O)N2 (centres undefined) ; field requested: solubility kinetic
Completion: 5.1 µg/mL

Prompt: Query (molecule): NC(=O)c1[nH]cnc1N ; field requested: solubility kinetic
Completion: > 18.9 µg/mL

Prompt: Query (molecule): O=C(O)c1ccccc1C(=O)NCC(O)c1ccccc1 (centres undefined) ; field requested: solubility kinetic
Completion: > 42.8 µg/mL
